B1: tRNA (parent)
chain: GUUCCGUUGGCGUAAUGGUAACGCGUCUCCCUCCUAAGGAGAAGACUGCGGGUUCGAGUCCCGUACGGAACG

# Variants of: B1
# assay_protocol: yeast fitness relative to wild type (ratio to wild type); higher = fitter; tRNA-Arg(CCU), competitive growth, 37 C, YPD
Fewer inactive variants are shown than the library holds.
# label = true if yeast fitness >= 0.8 else false

variant_notation="C4G G51C U54A" group_label=false
variant_notation="U28C G67C" group_label=true
variant_notation="C5G G68U" group_label=false
variant_notation="A21G C24G C31A G44A" group_label=false
variant_notation="U2C A40C A69C" group_label=false
variant_notation="U7C G12C U32A G39A C49G" group_label=false
variant_notation="C31G A45U U47A" group_label=false
variant_notation="U2C G6C C11G A15C G25C C27G C30G G38C" group_label=false
variant_notation="G48A U54C A69C" group_label=false
variant_notation="U7G A14C C30G C66U" group_label=false
variant_notation="U7C C61G A65C" group_label=false
variant_notation="C4A C30G C66A" group_label=false
variant_notation="C5A A14C A21U C34U G38C" group_label=false
variant_notation="U2C U26G" group_label=true
variant_notation="C4A C5A C34A C46U A65C" group_label=false
variant_notation="C5G G17C C55U" group_label=false
variant_notation="G25A C49U A70C" group_label=true
variant_notation="C5A C27G" group_label=false
variant_notation="C27A A42C G68C" group_label=false
